# Study System: PaIspD (Pseudomonas aeruginosa)
# Construct: His6 (N, cleaved yes); made in house; host or cells: Escherichia coli BL21 (DE3), pET28
# Sequence (P57707 1-234): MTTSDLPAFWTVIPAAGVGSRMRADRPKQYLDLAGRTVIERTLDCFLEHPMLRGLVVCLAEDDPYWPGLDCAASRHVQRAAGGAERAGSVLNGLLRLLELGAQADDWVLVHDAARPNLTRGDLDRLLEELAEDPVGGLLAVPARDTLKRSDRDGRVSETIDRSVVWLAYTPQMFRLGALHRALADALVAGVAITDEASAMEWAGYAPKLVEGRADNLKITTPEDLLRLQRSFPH
# Protocol Details: Microscale thermophoresis (MST) with dyed PaIspD
# Assay type: binding
# Test Conditions: kd (M), supplement sheet, CORRECTED VALUES
Value Type: Kd (M)
Numbers only here, please. The scale is M.

Item: CN1C(=O)c2ncccc2C1N(C)C(=O)N1CCOCC1 (stereo not shown) | Kd: 0.000239

Item: "CN1CCC(N2Cc3cccnc3C2=O)CC1" | Kd: 0.000186

Item: "CN1Cc2cccnc2C1=O" | Kd: 0.000939

Item: CCC(CC)C(=O)N(C)C1c2cccnc2C(=O)N1C (stereo not shown) | Kd: 0.000536

Item: "O=C1c2ncccc2CN1Cc1ccccc1" | Kd: 0.000133

Item: COC(=O)N(C)C1c2cccnc2C(=O)N1C (stereo not shown) | Kd: 0.000454

Item: CN(C(=O)c1ccon1)C1c2cccnc2C(=O)N1C (stereo not shown) | Kd: 0.000502

Item: "O=C1c2ncccc2CN1CCc1c[nH]c2ccccc12" | Kd: 0.000208

Item: "O=C1c2ncccc2CN1CCN1CCOCC1" | Kd: 0.000491

Item: CN(C(=O)c1ccncc1)C1c2cccnc2C(=O)N1C (stereo not shown) | Kd: 0.000209

---

# Study System: PaIspD (Pseudomonas aeruginosa)
# Construct: His6 (N, cleaved yes); made in house; host or cells: Escherichia coli BL21 (DE3), pET28
# Protocol Details: Microscale thermophoresis (MST) with dyed PaIspD
# Assay type: binding
# Test Conditions: supplement sheet, CORRECTED VALUES
Exercise: for every item that follows, state its recorded LE.

# "CN1CCC(N2Cc3cccnc3C2=O)CC1" with PaIspD (Pseudomonas aeruginosa): LE is 0.3006

# CN(C(=O)c1ccon1)C1c2cccnc2C(=O)N1C (stereo not shown) with PaIspD (Pseudomonas aeruginosa): LE is 0.226

# "CN1Cc2cccnc2C1=O" with PaIspD (Pseudomonas aeruginosa): LE is 0.377

# COC(=O)N(C)C1c2cccnc2C(=O)N1C (stereo not shown) with PaIspD (Pseudomonas aeruginosa): LE is 0.2694

---

# Study System: PaIspD (Pseudomonas aeruginosa, UniProt P57707)
# Construct: His6 (N, cleaved yes); made in house; host or cells: Escherichia coli BL21 (DE3), pET28
# Protocol Details: Fluorescence quenching (PaIspD)
# Assay type: binding
Label condition met when Kd < 400 µM; otherwise condition not met.

Decide: Kd of CN1C(=O)c2ncccc2C1N(C)C(=O)N1CCOCC1 (centres unmarked) strictly below 400 µM?
condition met

Decide: Kd of "O=C1c2ncccc2CN1CCc1c[nH]c2ccccc12" strictly below 400 µM?
condition met

Decide: Kd of CN(C(=O)c1ccon1)C1c2cccnc2C(=O)N1C (centres unmarked) strictly below 400 µM?
condition met

Decide: Kd of CCC(=O)N(C)C1c2cccnc2C(=O)N1C (centres unmarked) strictly below 400 µM?
condition met

Decide: Kd of "CN1Cc2cccnc2C1=O" strictly below 400 µM?
condition not met

Decide: Kd of CN(C(=O)c1ccncc1)C1c2cccnc2C(=O)N1C (centres unmarked) strictly below 400 µM?
condition met

Decide: Kd of "CN1CCC(N2Cc3cccnc3C2=O)CC1" strictly below 400 µM?
condition not met
